Tested on: CEM cells HIV-1 protection, formazan growth assay
Experiment: NCI AIDS Antiviral Assay;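 active = compounds giving half or more protection of infected cells from virus-caused growth loss, again on retest; inactive = the rest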
Your reply should match one of these outcome classes. Yes (active), No (inactive)

MOLECULE | TESTED_TARGET | ASSIGNED_LABEL
c1ccc(CN2COCO[C@H]3CCC[C@@H]32)cc1 | CEM cells HIV-1 protection, formazan growth assay | No

Field: next molecule
Request: Assay result, entry Cc1nc2ccc(F)cc2c2c1CCN2c1ccc(Cl)cc1 — outcome?
Response: No

###

# reported IC50; entries follow
Tested on: CEM cells HIV-1 protection, formazan growth assay
Assay: NCI AIDS Antiviral Assay
Details: measured here: growth of uninfected CEM cells
Method: The ability of compounds to protect human CEM cells from HIV-1 infection is measured as a screen for new compounds capable of inhibiting the HIV virus. Five concentrations of drug were tested on uninfected and infected cells and cell growth was measured using a soluble formazan assay. […] Compounds that provided at least 50% protection were retested. Compounds that provided at least 50% protection on retest were listed as moderately active. […]

Request: Consider the molecule shown here: CC1=NN(C(=O)c2ccc(Cl)cc2)C(=O)/C1=C/c1cccc(O)c1 What is its recorded IC50?
Response: > 7.94 µM

Request: Consider the molecule shown here: OCC1C(CO)C2CC1C1N=NN(c3ccccc3)C21 (stereo not drawn) What is its recorded IC50?
Response: > 324 µM

Request: Consider the molecule shown here: COc1ccc(I)c(CCC(C(=O)O)C2=CCC3(CC2)OCCO3)c1 (stereo not drawn) What is its recorded IC50?
Response: > 145 µM

###

Tested on: CEM cells HIV-1 protection, formazan growth assay
Assay: NCI AIDS Antiviral Assay;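 active = compounds giving half or more protection of infected cells from virus-caused growth loss, again on retest; inactive = the rest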
Experimental: The ability of compounds to protect human CEM cells from HIV-1 infection is measured as a screen for new compounds capable of inhibiting the HIV virus. Five concentrations of drug were tested on uninfected and infected cells and cell growth was measured using a soluble formazan assay. […] Compounds that provided at least 50% protection were retested. Compounds that provided at least 50% protection on retest were listed as moderately active. […]
Your reply should match one of these outcome classes. True = active, False = inactive

Please review the entries below; each comes with its answer.
COMPOUND | ASSIGNED_LABEL
CCOC(=O)N1CCN(C=S)CC1 | False
CCc1cccc(C)c1NC(=S)NC(=O)c1ccccc1C(=O)NC(=S)Nc1c(C)cccc1CC | False
CC1=C(C(N)=O)C(c2ccncc2)C(C#N)C(=O)N1 (centres undefined) | False
CCOc1cccc2ccc[n+](CC)c12 | False

Request: Assay result, entry Clc1cccc(Cl)c1C1CSc2ccccc2N=C1c1ccccc1 (centres undefined) — outcome?
Response: False

Request: Assay result, entry CCC[CH2][Ge]([CH2]CCC)([CH2]CCC)[O]C(=O)C(O)c1ccccc1 (centres undefined) — outcome?
Response: False

Request: Assay result, entry COc1cc2oc(-c3ccc(O)cc3O)c(CC=C(C)C)c(=O)c2c(O)c1/C=C/C(C)C — outcome?
Response: False

Request: Assay result, entry O=C1CC(CC(=O)c2ccc(Br)cc2)C(=O)/C1=C(/O)c1ccc(Br)cc1 (centres undefined) — outcome?
Response: False

Request: Assay result, entry CN1C(=O)C2(C#N)C(C)(C)C2(C#N)C1=O (centres undefined) — outcome?
Response: False

###

System: CEM cells HIV-1 protection, formazan growth assay
Experiment: NCI AIDS Antiviral Assay
Details: measured here: growth of uninfected CEM cells
MEASURED_PARAMETER: IC50 (µM)
# value in µM; strip the unit string

MOLECULE | TESTED_TARGET | IC50 / µM
COC(=O)c1cc(C#N)[nH]c1-c1ccsc1 | CEM cells HIV-1 protection, formazan growth assay | 30.9

Request: Consider the molecule shown here: COc1ccc(C[C@H](N)C(=O)NC2C(CO)OC(n3cnc4c(N(C)C)ncnc43)C2O)cc1 (stereo partly drawn) What is its recorded IC50?
Response: 0.117

Request: Consider the molecule shown here: CC(C)=CCC/C(C)=C/Cc1cc(O)c(Br)cc1O What is its recorded IC50?
Response: 24

Request: Consider the molecule shown here: C=C1C(=O)OC2/C=C(\C)CC/C=C(\C)CC(OC(=O)/C(=C/CO)CO)[C@@H]12 (stereo partly drawn) What is its recorded IC50?
Response: 0.933

Request: Consider the molecule shown here: CCC1(CC)COP(=S)([S][Sb]([O]C(C)=O)[S]P2(=S)OCC(CC)(CC)CO2)OC1 What is its recorded IC50?
Response: 9.33

Request: Consider the molecule shown here: CC1(CO)CCCC2(C)C1CCC1CC3C=CC12C1C(=O)OC(=O)C31 (stereo not drawn) What is its recorded IC50?
Response: 83.2
